From: paper PMC7157554

# Procedure Details: Mouse plasma protein binding
# Type: in vitro ADME
# Study Conditions: mouse plasma
Listed next: entries and their corresponding fraction unbound.

Cc1nc(C)c(C(=O)Nc2ccc(F)c(-c3nc4ncc(C(C)(C)C)cn4n3)c2)o1 :: 0.095

Then this compound:
Please look up its fraction unbound: "Cc1nc(C)c(C(=O)Nc2ccc(F)c(-c3nc4ncc(-c5ccccc5)cn4n3)c2)o1"
< 0.01

* * *

# Test system: T. b. rhodesiense
# Procedure Details: Growth inhibition of T. b. rhodesiense strains
# Assay type: cell-based
# Study Conditions: Trypanosoma brucei, RHODESIENSE / STIB900, strain STIB900 Mel^R (melarsoprol-resistant); mean ± SD; read-out: T. b. rhodesiense EC50
Listed next: entries and their corresponding pEC50.
// pEC50 here means minus log10 of the molar concentration (mol/L)

Would you please look over these solved cases?
N=C(N)c1ccc(OCCCCCOc2ccc(C(=N)N)cc2)cc1 [Pentamidine, reference compound] :: 6.66
Cc1nc(C)c(C(=O)Nc2ccc(F)c(-c3nc4ncc(-c5ccccc5)cn4n3)c2)o1 [GNF3849] :: 9.22

Then this molecule:
Please look up its pEC50: Cc1nc(C)c(C(=O)Nc2ccc(F)c(-c3nc4ncc(-c5ccccn5)cn4n3)c2)o1 [GNF6702]
9.15

* * *

# Procedure Details: Intrinsic metabolic clearance in mouse liver microsomes
# Format: in vitro ADME
# Study Conditions: liver microsomes, read-out: Mouse liver microsomal clearance
Listed next: entries and their corresponding microsomal CLint.
Give a bare numeral; the unit µL/min/mg is implied.

Cc1nc(C)c(C(=O)Nc2ccc(F)c(-c3nc4ncc(-c5ccccc5)cn4n3)c2)o1 :: 15.2

Then this compound:
Please look up its microsomal CLint: "Cc1nc(C)c(C(=O)Nc2ccc(F)c(-c3nc4ncc(C(C)(C)C)cn4n3)c2)o1"
7.41

* * *

# Procedure Details: Brain-to-plasma drug concentration ratio in mice
# Type: in vivo
# Study Conditions: mouse, in vivo, 60 min after 1 mg/kg i.v., read-out: B/P Ratio
Assay Metric: Kp at 60 min
Provide a numeric answer; units are not to be included.

Please look up its Kp at 60 min: "Cc1nc(C)c(C(=O)Nc2ccc(F)c(-c3nc4ncc(-c5ccccn5)cn4n3)c2)o1"
0.17

* * *

Listed next: entries and their corresponding half-life.
# Procedure Details: Intravenous pharmacokinetics in mouse
# Assay type: in vivo
# Study Conditions: male, BALB/c, plasma, iv, 5 mg/kg, i.v., read-out: Elimination half-life (converted)
Please format your answer as a value with the unit trailing.

Cc1nc(C)c(C(=O)Nc2ccc(F)c(-c3nc4ncc(C(C)(C)C)cn4n3)c2)o1 :: 1.6 h

Then this compound:
Please look up its half-life: "Cc1nc(C)c(C(=O)Nc2ccc(F)c(-c3nc4ncc(-c5ccccc5)cn4n3)c2)o1"
6.5 h

* * *

# Procedure Details: Brain-to-plasma drug concentration ratio in mice
# Assay type: in vivo
# Study Conditions: mouse, in vivo, 5 min after 1 mg/kg i.v., read-out: B/P Ratio
Assay Metric: Kp at 5 min
Provide a numeric answer; units are not to be included.

Please look up its Kp at 5 min: "Cc1nc(C)c(C(=O)Nc2ccc(F)c(-c3nc4ncc(-c5ccccn5)cn4n3)c2)o1"
0.13

* * *

# System: T. b. rhodesiense
# Procedure Details: Growth inhibition of T. b. rhodesiense strains
# Assay type: cell-based
# Study Conditions: Trypanosoma brucei, RHODESIENSE / STIB900, strain STIB900 Pent^R (pentamidine-resistant); mean ± SD; read-out: T. b. rhodesiense EC50
Listed next: entries and their corresponding EC50.
Give a bare numeral; the unit nM is implied.

Would you please look over these solved cases?
Cc1nc(C)c(C(=O)Nc2ccc(F)c(-c3nc4ncc(-c5ccccn5)cn4n3)c2)o1 [GNF6702] :: 1.2
Cc1nc(C)c(C(=O)Nc2ccc(F)c(-c3nc4ncc(-c5ccccc5)cn4n3)c2)o1 [GNF3849] :: 1.7

Then this molecule:
Please look up its EC50: N=C(N)c1ccc(OCCCCCOc2ccc(C(=N)N)cc2)cc1 [Pentamidine, reference compound]
203

* * *

# Procedure Details: Intravenous pharmacokinetics in mouse
# Type: in vivo
# Study Conditions: male, BALB/c, plasma, iv, i.v. 5 mg/kg, read-out: Vss
Listed next: entries and their corresponding Vd.
Give a bare numeral; the unit L/kg is implied.

Cc1nc(C)c(C(=O)Nc2ccc(F)c(-c3nc4ncc(C(C)(C)C)cn4n3)c2)o1 [NITD689] :: 1.5

Then this compound:
Please look up its Vd: Cc1nc(C)c(C(=O)Nc2ccc(F)c(-c3nc4ncc(-c5ccccc5)cn4n3)c2)o1 [GNF3849]
1.2

* * *

# Procedure Details: Per oral pharmacokinetics in mouse
# Assay type: in vivo
# Study Conditions: male, BALB/c, plasma, po, p.o. 20 mg/kg, total
Listed next: entries and their corresponding Cmax.
Give a bare numeral; the unit µM is implied.

Cc1nc(C)c(C(=O)Nc2ccc(F)c(-c3nc4ncc(-c5ccccc5)cn4n3)c2)o1 :: 7.16

Then this compound:
Please look up its Cmax: "Cc1nc(C)c(C(=O)Nc2ccc(F)c(-c3nc4ncc(C(C)(C)C)cn4n3)c2)o1"
12.2

* * *

# Procedure Details: Per oral pharmacokinetics in mouse
# Type: in vivo
# Study Conditions: male, BALB/c, plasma, po, p.o. 20 mg/kg, read-out: F (oral bioavailability)
# Procedure: Determination of intravenous (i.v.) and per oral (p.o.) pharmacokinetics (PK) were carried out by using male BALB/c mice. […] The supernatant was transferred to a 96-well analysis plate and analyzed, using optimized LC/MS/MS conditions. […] Various PK parameters, such as Cmax (maximum concentration), area under curve (AUC) and oral bioavailability (F) for compounds, were calculated by non-compartmental regression analysis, using an in-house fitting program developed at GNF [8]. […]
Assay Metric: bioavailability (%)
Give a bare numeral; the unit % is implied.

Please look up its bioavailability: "Cc1nc(C)c(C(=O)Nc2ccc(F)c(-c3nc4ncc(C(C)(C)C)cn4n3)c2)o1"
100

* * *

# Test system: T. b. gambiense
# Procedure Details: Growth inhibition of T. b. gambiense strains
# Format: cell-based
# Study Conditions: Trypanosoma brucei, GAMBIENSE, read-out: T. b. gambiense EC50, strain R130; mean ± SD
Assay Metric: pEC50
// pEC50 here means minus log10 of the molar concentration (mol/L)

Please look up its pEC50: Nc1nc(N)nc(Nc2ccc([As]3SCC(CO)S3)cc2)n1 (stereo not shown) [Melarsoprol, reference compound]
8.11

* * *

# Procedure Details: HepG2 cytotoxicity assay (CCK-8, 96 h)
# Type: cell-based, human
# Study Conditions: human, HepG2 cells, mean ± SEM
Assay Metric: CC50 at 96 h (nM)
Give a bare numeral; the unit nM is implied.

Please look up its CC50 at 96 h: "Cc1nc(C)c(C(=O)Nc2ccc(F)c(-c3nc4ncc(-c5ccccc5)cn4n3)c2)o1"
1100

* * *

Listed next: entries and their corresponding pEC50.
# Tested on: T. brucei PSMB4^WT
# Procedure Details: Growth inhibition of T. brucei expressing wild-type 20S proteasome β4 subunit
# Format: cell-based
# Study Conditions: Trypanosoma brucei, read-out: T. brucei PSMB4^WT EC50
// pEC50 here means minus log10 of the molar concentration (mol/L)

CC(C)C[C@H](NC(=O)[C@H](Cc1ccccc1)NC(=O)c1cnccn1)B(O)O [Bortezomib, reference compound] :: 9.03
Cc1nc(C)c(C(=O)Nc2ccc(F)c(-c3nc4ncc(C(C)(C)C)cn4n3)c2)o1 :: 7.70

Then this compound:
Please look up its pEC50: "Cc1nc(C)c(C(=O)Nc2ccc(F)c(-c3nc4ncc(-c5ccccc5)cn4n3)c2)o1"
8.00

* * *

# Procedure Details: Intravenous pharmacokinetics in mouse
# Format: in vivo
# Study Conditions: male, BALB/c, plasma, iv, 5 mg/kg
Listed next: entries and their corresponding clearance.
Give a bare numeral; the unit mL/min/kg is implied.

Cc1nc(C)c(C(=O)Nc2ccc(F)c(-c3nc4ncc(-c5ccccn5)cn4n3)c2)o1 :: 2.26

Then this compound:
Please look up its clearance: "Cc1nc(C)c(C(=O)Nc2ccc(F)c(-c3nc4ncc(C(C)(C)C)cn4n3)c2)o1"
13.5

* * *

# Procedure Details: High-throughput thermodynamic solubility assay
# Format: physicochemical
# Study Conditions: pH 6.8, thermodynamic from solid
Assay Metric: solubility (µg/mL)
Give a bare numeral; the unit µg/mL is implied.

Please look up its solubility: Cc1nc(C)c(C(=O)Nc2ccc(F)c(-c3nc4ncc(C(C)(C)C)cn4n3)c2)o1 [NITD689]
71
